Listing: Fbg of selected compounds
# Species on record: Rattus norvegicus
# ASSAY_SUMMARY: Open TG-GATES - Regimen: Single
# Type: toxicity, organism-based, Sprague-Dawley
# Design: regimen Single, gender Male, age 6 weeks
# CONDITION_DESCRIPTION: in vivo, po, 0 mg/kg, 6 h, tissue Blood, route gavage, dose level Control
# output: numeric value plus its unit

Which Fbg reading was recorded for the compound C=CCO [ALLYL ALCOHOL] ?
235.8 mg/dL

Which Fbg reading was recorded for the compound CS(=O)(=O)Nc1ccc([N+](=O)[O-])cc1Oc1ccccc1 [NIMESULIDE] ?
209.6 mg/dL

Which Fbg reading was recorded for the compound Cc1cnc(NC(=O)C2=C(O)c3ccccc3S(=O)(=O)N2C)s1 [MELOXICAM] ?
235.8 mg/dL

Now for another entry.
Which Fbg reading was recorded for the compound Cn1cnc([N+](=O)[O-])c1Sc1ncnc2nc[nH]c12 [AZATHIOPRINE] ?
307.4 mg/dL
